Tested on: upland rice (Oryza sp., var. Tebonnet, RICE)
Assay: Pre-emerge test, crop safety
Format: in vivo
Conditions: pre-emerge, 63 g ai/ha, 14 days after application, scale 0-100
Description: A standard greenhouse herbicide activity screening system was used to evaluate the herbicidal efficacy and crop safety of these test compounds. […] At 14 days after application of the test materials, phytotoxicity ratings were recorded. […]
Quick reference for phytotoxicity rating RICE (crop damage) among some compounds
Form field (numeric): enter value without unit.

Examples with their reported phytotoxicity rating RICE (crop damage) follow.
{"smiles-notation": "N#CCOc1c(Cl)cc(F)c(-n2c(=O)cc(C(F)(F)F)n(N)c2=O)c1NC(=O)c1ccc2ccccc2c1", "phytotoxicity rating RICE (crop damage)": 10}
{"smiles-notation": "COc1c(Cl)cc(F)c(-n2c(=O)cc(C(F)(F)F)n(C)c2=O)c1NC(=O)CSC(C)C", "phytotoxicity rating RICE (crop damage)": 0}
{"smiles-notation": "Cn1c(C(F)(F)F)cc(=O)n(-c2ccc(C#N)cc2NC(=O)c2ccc3ccccc3c2)c1=O", "phytotoxicity rating RICE (crop damage)": 30}

Kindly review the next compound as well.
Task item: Suppose we examine the compound COc1c(Cl)cc(Cl)c(-n2c(=O)cc(C(F)(F)F)n(C)c2=O)c1NC(=O)c1ccc2ccccc2c1 ; what phytotoxicity rating RICE (crop damage) value has been reported?
Reply: 20
